Entry source: patent US20230172206A1

Tested on: Phakopsora pachyrhizi (F129L)
Procedure Summary: Protective control of soybean rust on soybeans (PHAKPA P2)
Format: in vivo
Run Parameters: protective P2, 16 ppm, F129L isolate
// returns rule not met unless % PHAKPA (F129L) Disease level P2 at 16 ppm is strictly below 1%, in which case rule met

Examples from the recorded data:
>>> class_name("CNC(=O)/C(=N/OC)c1cccc(C)c1CO/N=C(\\C)c1cccc(Cl)c1C(F)(F)F")
"rule met"
>>> class_name("CO/C=C(/C(=O)OC)c1cccc(C)c1CO/N=C(\\C)c1c(Cl)cc(Cl)cc1OC(F)(F)F")
"rule not met"
>>> class_name("CNC(=O)/C(=N/OC)c1cccc(C)c1CO/N=C(\\CC(F)(F)F)c1ccccc1")
"rule not met"
>>> class_name("CO/C=C(/C(=O)OC)c1cccc(C)c1CO/N=C(\\C)c1c(Cl)ccc(F)c1OC(F)(F)F")
"rule not met"
>>> class_name("CNC(=O)/C(=N/OC)c1cccc(C)c1CO/N=C(\\C)c1ccc(F)c(F)c1OC(F)(F)F")
"rule met"

Now consider a different compound.
Determine if CNC(=O)/C(=N/OC)c1cccc(C)c1CO/N=C(/c1ccccc1)C(F)(F)F shows % PHAKPA (F129L) Disease level P2 at 16 ppm strictly lower than 1%.
rule not met

----------
System: Phakopsora pachyrhizi (F129L)
Procedure Summary: Protective control of soybean rust on soybeans (PHAKPA P6)
Type: in vivo
Run Parameters: protective P6, 16 ppm, soybean rust F129L isolate
Parameter class (string): assigned from measured % PHAKPA (F129L) Disease level P6 at 16 ppm. Ranges: low end (below 20%), middle (20% to below 40%), high end (40% or more)

>>> class_name("CO/N=C(/C(=O)OC)c1cccc(C)c1CO/N=C(\\C)c1ccccc1CC(F)(F)F")
"high end"
>>> class_name("CNC(=O)/C(=N/OC)c1cccc(C)c1CO/N=C(\\C)c1ccccc1CC(C)C")
"high end"
>>> class_name("CO/C=C(/C(=O)OC)c1cccc(C)c1CO/N=C(\\C)c1ccccc1C(F)(F)F")
"low end"

For the record CNC(=O)/C(=N/OC)c1cccc(C)c1CO/N=C(\C)c1c(F)cc(Br)cc1C(F)(F)F , report the class its % PHAKPA (F129L) Disease level P6 at 16 ppm corresponds to.
low end

For the record CNC(=O)/C(=N/OC)c1cccc(C)c1CO/N=C(\C)c1ccccc1C1CC1 , report the class its % PHAKPA (F129L) Disease level P6 at 16 ppm corresponds to.
high end

For the record CO/N=C(/C(=O)OC)c1cccc(C)c1CO/N=C(\C)c1ccc(F)cc1F , report the class its % PHAKPA (F129L) Disease level P6 at 16 ppm corresponds to.
high end

For the record CNC(=O)/C(=N/OC)c1cccc(C)c1CO/N=C(\C)c1ccccc1C1(C)CC1 , report the class its % PHAKPA (F129L) Disease level P6 at 16 ppm corresponds to.
high end

For the record CNC(=O)/C(=N/OC)c1cccc(C)c1CO/N=C(\C)c1ccccc1OC(F)F , report the class its % PHAKPA (F129L) Disease level P6 at 16 ppm corresponds to.
middle

For the record CNC(=O)/C(=N/OC)c1cccc(C)c1CO/N=C(\C)c1ccc(OC(F)(F)F)cc1OC(F)(F)F , report the class its % PHAKPA (F129L) Disease level P6 at 16 ppm corresponds to.
middle

For the record CNC(=O)/C(=N/OC)c1cccc(C)c1CO/N=C(\C)c1cccc(C2CC2)c1 , report the class its % PHAKPA (F129L) Disease level P6 at 16 ppm corresponds to.
middle

For the record CO/N=C(/C(=O)OC)c1cccc(C)c1CO/N=C(\C)c1cc(Cl)c(F)c(Cl)c1 , report the class its % PHAKPA (F129L) Disease level P6 at 16 ppm corresponds to.
low end

For the record CNC(=O)/C(=N/OC)c1cccc(C)c1CO/N=C(\C)c1c(Cl)cccc1C(F)(F)F , report the class its % PHAKPA (F129L) Disease level P6 at 16 ppm corresponds to.
middle

For the record CNC(=O)/C(=N/OC)c1cccc(C)c1CO/N=C(\C)c1ccc(OC(F)(F)F)cc1C(F)(F)F , report the class its % PHAKPA (F129L) Disease level P6 at 16 ppm corresponds to.
low end

For the record CO/N=C(/C(=O)OC)c1cccc(C)c1CO/N=C(\C)c1ccccc1OC(F)F , report the class its % PHAKPA (F129L) Disease level P6 at 16 ppm corresponds to.
high end

For the record CO/N=C(/C(=O)OC)c1cccc(C)c1CO/N=C(\C)c1ccc(Br)cc1C(F)(F)F , report the class its % PHAKPA (F129L) Disease level P6 at 16 ppm corresponds to.
high end

For the record CNC(=O)/C(=N/OC)c1cccc(C)c1CO/N=C(\C)c1ccc(C)cc1C(F)(F)F , report the class its % PHAKPA (F129L) Disease level P6 at 16 ppm corresponds to.
low end

For the record CNC(=O)/C(=N/OC)c1cccc(C)c1CO/N=C(\C)c1cccc(F)c1C(F)(F)F , report the class its % PHAKPA (F129L) Disease level P6 at 16 ppm corresponds to.
low end

For the record CNC(=O)/C(=N/OC)c1cccc(C)c1CO/N=C(\C)c1c(F)cc(F)cc1OC(F)(F)F , report the class its % PHAKPA (F129L) Disease level P6 at 16 ppm corresponds to.
low end

For the record CNC(=O)/C(=N/OC)c1cccc(C)c1CO/N=C(\C)c1ccc(Cl)cc1 , report the class its % PHAKPA (F129L) Disease level P6 at 16 ppm corresponds to.
low end

For the record CNC(=O)/C(=N/OC)c1cccc(C)c1CO/N=C(\C)c1c(F)cc(Br)cc1OC(F)(F)F , report the class its % PHAKPA (F129L) Disease level P6 at 16 ppm corresponds to.
low end

For the record CNC(=O)/C(=N/OC)c1cccc(C)c1CO/N=C(\C)c1ccccc1C(C)C , report the class its % PHAKPA (F129L) Disease level P6 at 16 ppm corresponds to.
high end

For the record C#Cc1cc(F)ccc1/C(C)=N/OCc1c(C)cccc1/C(=N\OC)C(=O)NC , report the class its % PHAKPA (F129L) Disease level P6 at 16 ppm corresponds to.
middle

For the record CNC(=O)/C(=N/OC)c1cccc(C)c1CO/N=C(\C)c1c(F)ccc(F)c1C(F)(F)F , report the class its % PHAKPA (F129L) Disease level P6 at 16 ppm corresponds to.
high end

For the record CNC(=O)/C(=N/OC)c1cccc(C)c1CO/N=C(\C)c1cccc(OC/C(C)=N/OC)c1 , report the class its % PHAKPA (F129L) Disease level P6 at 16 ppm corresponds to.
low end

For the record CNC(=O)/C(=N/OC)c1cccc(C)c1CO/N=C(\C)c1ccc(F)cc1Cl , report the class its % PHAKPA (F129L) Disease level P6 at 16 ppm corresponds to.
low end

----------
Listed here are compounds together with their documented % PHAKPA (F129L) Disease level P2 at 16 ppm.
Tested on: Phakopsora pachyrhizi (F129L)
Procedure Summary: Protective control of soybean rust on soybeans (PHAKPA P2)
Assay type: in vivo
Run Parameters: protective P2, 16 ppm, F129L isolate
Please give a number only; it is taken to be in %.

>>> meas_value("CO/N=C(/C(=O)OC)c1cccc(C)c1CO/N=C(\\C)c1c(Cl)cc(Cl)cc1OC(F)(F)F [compound 427]")
90
>>> meas_value("CNC(=O)/C(=N/OC)c1cccc(C)c1CO/N=C(\\C)c1ccc(/C(C)=N\\OC)cc1C(F)(F)F [compound 420]")
0
>>> meas_value("CO/C=C(/C(=O)OC)c1cccc(C)c1CO/N=C(\\C)c1ccc(OC)cc1C(F)(F)F [compound 464]")
0
>>> meas_value("CO/C=C(/C(=O)OC)c1cccc(C)c1CO/N=C(\\C)c1ccccc1OC(F)(F)F [compound 462]")
6

Looking for the measured % PHAKPA (F129L) Disease level P2 at 16 ppm of CNC(=O)/C(=N/OC)c1cccc(C)c1CO/N=C(\C)c1ccc(-c2ccccc2)cc1OC(F)(F)F [compound 435] , can you help?
57

----------
Listed here are molecules together with their documented Fungal growth (%) CERCSO.
System: Cercospora sojina
Format: cell-based
Run Parameters: 4 ppm, 7 days after inoculation, relative to compound-free control (100%)
Please give a number only; it is taken to be in %.

>>> meas_value("CO/N=C(/C(=O)OC)c1cccc(C)c1CO/N=C(/c1cccc(C)c1)C1CC1 [drawing 957]")
87

We next turn to a different molecule, shown below.
Please tell me: Fungal growth (%) CERCSO of CO/N=C(/C(=O)OC)c1cccc(C)c1CO/N=C(\OC)c1cccc(C(F)(F)F)c1 , system Cercospora sojina?
56

----------
Listed here are compounds together with their documented % PHAKPA (F129L) Disease level P2 at 16 ppm.
Tested on: Phakopsora pachyrhizi (F129L)
Procedure Summary: Protective control of soybean rust on soybeans (PHAKPA P2)
Type: in vivo
Run Parameters: protective P2, 16 ppm, soybean rust F129L isolate
Please give a number only; it is taken to be in %.

Example cases with answers are listed next.
>>> meas_value("CNC(=O)/C(=N/OC)c1cccc(C)c1CO/N=C(\\C)c1c(F)cc(Br)cc1OC(F)(F)F [compound 355]")
7
>>> meas_value("CNC(=O)/C(=N/OC)c1cccc(C)c1CO/N=C(\\C)c1c(F)cccc1Cl [compound 284]")
44
>>> meas_value("CNC(=O)/C(=N/OC)c1cccc(C)c1CO/N=C(\\C)c1ccc(OC)cc1OC(F)(F)F [compound 337]")
0

We next turn to a different compound, shown below.
Looking for the measured % PHAKPA (F129L) Disease level P2 at 16 ppm of CNC(=O)/C(=N/OC)c1cccc(C)c1CO/N=C(\C)c1cccc(OC/C(C)=N/OC)c1 [compound 226] , can you help?
3
